assayed-system: HIV-1 Rev (Human immunodeficiency virus 1, UniProt P04618 P04618:1-116)
Sequence (P04618 whole entry, one chain of several): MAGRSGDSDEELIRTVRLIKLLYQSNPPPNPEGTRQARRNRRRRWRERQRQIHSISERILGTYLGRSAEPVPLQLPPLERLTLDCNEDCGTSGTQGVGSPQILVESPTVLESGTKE
protocol-description: filter; 50 mM KCl, 4 C; 40% bound at 10 nM rev
condition-notes: tags: none stated; heparin-Sepharose and Superose 6 purified; chain copies: oligomer (tetramer likely; about 4 per RBC6, 6-8 per full-length RRE at 50 mM KCl) stated; label: 32P uniform
measured-quantity: pKd
Notebook: values listed as pKd are -log10 of the concentration (mol/L).

Q: Recorded pKd of R57 (ssRNA, [-]) RNA: GGGAGACCGGAAUUCUGGGCACAGUGUCAUUGACGCUGUGGUACAGAAUUCCGGCA , please.
A: 8.52
